Data origin: PubChem BioAssay (NCI)

- System: HS 578T breast
- assay_comment: NCI tumour cell line growth inhibition, 48 h
endpoint_name: TGI (µM)
Give a bare numeral; the unit µM is implied.

# count of solved cases: 3
C[n+]1c(/C=C/c2c[nH]c3ccccc23)ccc2ccccc21: 33.3
COc1cc2nc(Nc3cccc(Br)c3)nc(Nc3cccc(Br)c3)c2cc1OC: 38.5
Cc1cc(Nc2ccc(OCc3ccccc3)cc2)nc2cc(O)ccc12: 29.2

Consider the record given below.
[ask] For the compound shown here, "C1=NCCN2CCN(CCN=Cc3ccccc3OCc3cccc(n3)COc3ccccc31)CC2" , give the reported TGI.
[reply] 4.43

---

- System: SF-539 CNS
- assay_comment: NCI tumour cell line growth inhibition, 48 h
Each record here notes measured TGI.

# count of solved cases: 3
c1ccc(N2N=C(c3cccc(Nc4ccncc4)c3)CC2c2ccc3c(c2)OCO3)cc1 (centres undefined): 3.18 µM
O=C(C=C1SCCS1)/C=C\c1ccc(Cl)cc1: > 100 µM
COc1ccc2c(c1)[n+]([O-])c(-c1ccc([N+](=O)[O-])cc1)c(N)[n+]2[O-]: > 100 µM

[ask] API: value(readout=TGI, system=SF-539 CNS) for record "O=C1/C(=N\O)c2ccccc2S1(=O)=O"
[reply] > 100 µM

[ask] API: value(readout=TGI, system=SF-539 CNS) for record "O=C1/C(=C\c2ccc(F)cc2)CN(C(=O)c2ccccc2)C/C1=C\c1ccc(F)cc1"
[reply] 7.58 µM

---

- Tested on: RPMI-8226 leukemia
- assay_comment: NCI tumour cell line growth inhibition, 48 h
endpoint_name: TGI

# count of solved cases: 2
N#Cc1cnc(-n2[nH]c3c(c2=O)CCCC3)[nH]c1=O: > 100 µM
COC1=CC(c2ccc[nH]2)=N/C1=C\c1[nH]c(C)c(CC(=O)OCc2ccccc2)c1CCC(=O)OCc1ccccc1: 0.76 µM

[ask] For the compound shown here, C=CCC(N[C@@H](CO)c1ccccc1)c1cn(Cc2ccccc2Cl)c(=O)n(Cc2ccccc2Cl)c1=O (stereo partly drawn) , give the reported TGI.
[reply] > 100 µM

[ask] For the compound shown here, "c1ccc2c(c1)NCCC(=NC1CCCCC1)N2" , give the reported TGI.
[reply] > 100 µM

[ask] For the compound shown here, "COc1ccc(N=Cc2c(O)ccc3c2oc2cc(Cl)c(O)c(Cl)c23)cc1" , give the reported TGI.
[reply] 30.2 µM

[ask] For the compound shown here, "CC1=C(O)c2cn(C)cc2C(=O)C1=O" , give the reported TGI.
[reply] > 100 µM

[ask] For the compound shown here, "Cc1ccc(Cl)cc1Nc1nc(C(F)(F)F)ccc1C(=O)N/N=C/c1cccnc1" , give the reported TGI.
[reply] > 32.5 µM

[ask] For the compound shown here, "Nc1ccc2nc3c(nc2c1)C(=O)c1ccccc1-3" , give the reported TGI.
[reply] > 100 µM

[ask] For the compound shown here, "Cc1sc2[nH]c(=O)oc(=O)c2c1C" , give the reported TGI.
[reply] > 100 µM

[ask] For the compound shown here, CC[C@H]1CN2CCc3cc(OC)c(OC)cc3C2C[C@@H]1CC1NCCc2cc(OC)c(OC)cc21 (stereo partly drawn) , give the reported TGI.
[reply] 0.128 µM

[ask] For the compound shown here, "CC(=O)N(C)c1ccc(N=CN(C)C)cc1" , give the reported TGI.
[reply] > 100 µM

[ask] For the compound shown here, O=C(O)CSC(CC1(c2ccc(Cl)cc2)NC(=O)CS1)c1ccc(Cl)cc1 (stereo not drawn) , give the reported TGI.
[reply] > 100 µM

[ask] For the compound shown here, "COc1cc2nccc(Oc3ccc(NC(=O)NC4CC4)c(Cl)c3)c2cc1C(N)=O" , give the reported TGI.
[reply] > 100 µM

---

- Test system: HT29 colon
- assay_comment: NCI tumour cell line growth inhibition, 48 h
endpoint_name: TGI

C=CCNC(=S)N=Nc1c(O)n(CN2CCOCC2)c2ccc([N+](=O)[O-])cc12: > 100 µM
COc1cccc(CCC2CCCN(c3cc(C)nc(N)n3)C2)c1 (centres undefined): 1.49 µM
NC(=S)N/N=C/c1nccc2ccccc12: > 100 µM
Cc1ccc(Cl)cc1Nc1nc(C(F)(F)F)ccc1C(=O)N/N=C/c1cccnc1: 20.7 µM
O=C(O)CSCc1cc2c(O)c(c1)Cc1cc(CSCC(=O)O)cc(c1O)Cc1cc(CSCC(=O)O)cc(c1O)Cc1cc(CSCC(=O)O)cc(c1O)C2: > 100 µM

[ask] API: value(readout=TGI, system=HT29 colon) for record "O=[N+]([O-])c1ccc2nc(Cl)n[n+]([O-])c2c1"
[reply] 49.1 µM

[ask] API: value(readout=TGI, system=HT29 colon) for record Nc1nc2c(ncn2C2CCC(CO)O2)c(=O)n1C(=O)c1ccccc1 (centres undefined)
[reply] > 100 µM

[ask] API: value(readout=TGI, system=HT29 colon) for record CCCCCCCCCCCCCCCCCCNc1ccn(C2OC(COP(=O)(O)OCC3OC(n4cc(C)c(=O)[nH]c4=O)CC3F)C(O)C2O)c(=O)n1 (centres undefined)
[reply] > 55 µM

[ask] API: value(readout=TGI, system=HT29 colon) for record "COc1cc2nccc(Oc3ccc(NC(=O)NC4CC4)c(Cl)c3)c2cc1C(N)=O"
[reply] > 100 µM

---

- Test system: DU-145 prostate
- assay_comment: NCI tumour cell line growth inhibition, 48 h
Each record here notes measured TGI.

CC(C)(C)n1c(=O)n2n(c1=O)Cc1cccc3cccc(c13)C2: > 100 µM

[ask] For the compound shown here, "CC1=NN(C(=O)c2ccccc2O)C(=O)/C1=C/c1cccc(O)c1" , give the reported TGI.
[reply] > 100 µM

---

- Tested on: TK-10 renal
- assay_comment: NCI tumour cell line growth inhibition, 48 h
Label yes when TGI is at or above 30 µM; anything below gets no.

C(/C=C/c1ccccc1)=Nc1ccc2c(c1)Cc1ccccc1-2: yes
CCOC(=O)CCC(NC(=O)Cc1ccc(Nc2nc3ccccc3nc2-c2cccs2)cc1)C(=O)OCC (stereo unspecified): yes
c1cnn(C23C4C5C6C4C2C6C53)c1 (stereo unspecified): yes
O=[N+]([O-])c1ccc(C2CC(c3ccccc3Cl)=Nc3ccccc3S2)cc1 (stereo unspecified): yes
COc1ccccc1NC(=O)C1=C(C)NC(C)=C(C(=O)Nc2ccccc2OC)C1C1=CC=COC1: yes

[ask] Confirm if TGI reported for the compound "CO/C=C/C(=O)c1cc2cnc3c(=N)cc(NC(=O)C(C)C)c([nH]1)c23" is 30 µM or above.
[reply] no

[ask] Confirm if TGI reported for the compound "O=C(c1ccco1)c1nc2cc(C(F)(F)F)ccc2nc1C(F)(F)F" is 30 µM or above.
[reply] yes

[ask] Confirm if TGI reported for the compound "CCC(CC)c1nc(Nc2ccc(C(=O)OC)cc2)c2ccccc2n1" is 30 µM or above.
[reply] no

[ask] Confirm if TGI reported for the compound "CCN(CC)Cc1cc(Nc2c3ccccc3nc3c2[nH]c2ccccc23)cc(CN(CC)CC)c1O" is 30 µM or above.
[reply] no

[ask] Confirm if TGI reported for the compound C=CC(=O)NCCSCCCOC1(C(=O)O)CC(O)C(NC(C)=O)C(C(O)C(O)CO)O1 (stereo unspecified) is 30 µM or above.
[reply] yes

[ask] Confirm if TGI reported for the compound "O=C1C(Cl)=C(Sc2nnc3c4ccccc4c4ccccc4c3n2)C(=O)c2ccccc21" is 30 µM or above.
[reply] yes

[ask] Confirm if TGI reported for the compound NS(=O)(=O)OCC1OC(n2cnc3cncnc32)C(O)C1O (stereo unspecified) is 30 µM or above.
[reply] no

[ask] Confirm if TGI reported for the compound NC(CSCc1ccc(I)cc1)C(=O)O (stereo unspecified) is 30 µM or above.
[reply] yes

[ask] Confirm if TGI reported for the compound CCOP(=O)(C=C=C1CCC2[C@@H]3CCc4cc(OC)ccc4C3CC[C@]12C)OCC (stereo partly specified) is 30 µM or above.
[reply] no

[ask] Confirm if TGI reported for the compound "CC1=C(O)c2cn(C)cc2C(=O)C1=O" is 30 µM or above.
[reply] yes

[ask] Confirm if TGI reported for the compound "Cc1ccc(NC(=O)c2ccc(CN3CCN(C)CC3)cc2)cc1Nc1nccc(-c2cccnc2)n1" is 30 µM or above.
[reply] yes

[ask] Confirm if TGI reported for the compound CC(=O)OCC(C)C1=C(OC(C)=O)C(=O)C2(C)C/C=C(/C)CC/C=C(\C)CCC(OC(C)=O)C(C)CCC12 (stereo unspecified) is 30 µM or above.
[reply] yes

[ask] Confirm if TGI reported for the compound "Cc1ccc(S(=O)(=O)N2CCN(S(=O)(=O)c3ccc(C)cc3)CCN(S(=O)(=O)c3ccc(C)cc3)Cc3cc(C#N)c(C#N)cc3CN(S(=O)(=O)c3ccc(C)cc3)CC2)cc1" is 30 µM or above.
[reply] yes
